Assay: Bmi1 luciferase reporter increase in mESCs, primary screen, esBAF inhibitor project, mouse ES cells, Bmi1 luciferase knock-in, single point (AID 602393);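 note: 0% = median of the plate's neutral control wells and 100% = double that signal; a rise in the Bmi1 reporter signal indicates esBAF inhibition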
Settings: 24 h, at 12.5 µM, stronger effect = higher value, 100% = twice the neutral-well signal
About 7,000 (2%) of roughly 350,000 compounds were called active. The sample holds actives, similar compounds and a random draw of the others, so the mix is not that of the screen.
Measured property: reporter increase

Cc1noc(C)c1S(=O)(=O)N(C)C[C@@H]1OCCCC[C@H](C)Oc2ccc(NC(=O)Nc3ccc4c(c3)OCO4)cc2C(=O)N([C@H](C)CO)C[C@H]1C: 2% (inactive)
O=C(NNC(=O)c1cc2c(s1)CCCC2)c1ccccc1: 40.9% (active)
Fc1cccc(Cc2c(-c3ccc(Cl)cc3)nc3ccc(Cl)cn23)c1: 7.58% (inactive)
C[C@@H](O)C#Cc1cnc2c(c1)C(=O)N([C@@H](C)CO)C[C@H](C)[C@H](CN(C)C(=O)c1ccccc1F)O2: -1.43% (inactive)
CS(=O)(=O)Nc1ccc2c(c1)[C@@H]1C[C@H](CC(=O)NCc3ccccn3)O[C@@H](CO)[C@@H]1O2: 0.762% (inactive)

Query :: Suppose we examine the compound O=C(NCCCN1CCOCC1)c1cc(-c2ccccc2F)no1 ; what reporter increase value has been reported?
Result :: 19.6% (inactive)

Query :: Suppose we examine the compound O=C(c1ccco1)N1CCN(c2cccc(Cl)c2)CC1 ; what reporter increase value has been reported?
Result :: 45.4% (active)

Query :: Suppose we examine the compound Cc1ccccc1S(=O)(=O)NCC[C@@H]1CC[C@H](NC(=O)C2CCCCC2)[C@@H](CO)O1 ; what reporter increase value has been reported?
Result :: 4.09% (inactive)

Query :: Suppose we examine the compound CC(C)NC(=O)N(C)C[C@@H]1OCc2ccccc2-c2c(n(C)c3ccccc23)C(=O)N([C@@H](C)CO)C[C@H]1C ; what reporter increase value has been reported?
Result :: -0.481% (inactive)

====

Test: Bmi1 luciferase reporter increase in mESCs, primary screen, esBAF inhibitor project, mouse ES cells, Bmi1 luciferase knock-in, single point (AID 602393);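 note: 0% = median of the plate's neutral control wells and 100% = double that signal; a rise in the Bmi1 reporter signal indicates esBAF inhibition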
Conditions: 24 h, at 12.5 µM, 100% = twice the neutral-well signal
Screen size: about 350,000 compounds; about 7,000 (2%) were called active. Cut-off read from the data, not from the text of the source: active = activation above about 40%; inconclusive = no clear call, values can overlap the other calls; inactive = below that. What follows is part of a selection rich in actives, with near analogues and random picks from the rest.
Entry note: the call must match one of t = active, f = inactive

These solved cases illustrate the format of a correct answer.
O=C(Nc1ccc2ccccc2c1[N+](=O)[O-])c1ccccc1: t
C1=C(CCNc2ncnc3c2cnn3-c2ccccc2)CCCC1: t

Please find the next molecule below.
Query :: Field: outcome | Entry: CN(C)CC(=O)Nc1ccc2c(c1)[C@@H]1C[C@H](CC(=O)NCc3ccc(-c4ccccc4)cc3)O[C@@H](CO)[C@@H]1O2
Result :: f

====

Experiment: Bmi1 luciferase reporter increase in mESCs, primary screen, esBAF inhibitor project, mouse ES cells, Bmi1 luciferase knock-in, single point (AID 602393);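 note: 0% = median of the plate's neutral control wells and 100% = double that signal; a rise in the Bmi1 reporter signal indicates esBAF inhibition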
Settings: 24 h, at 12.5 µM, stronger effect = higher value, 100% = twice the neutral-well signal
Hit rate of the full screen: of about 350,000 compounds, about 7,000 (2%) were called active. The sample holds actives, similar compounds and a random draw of the others, so the mix is not that of the screen.
# key: entry, value: reporter increase
Respond numerically; units are % and should not be typed.

Solved cases below.
CCC(=O)NC[C@H]1[C@@H](c2ccc(C3=CCCC3)cc2)[C@@H](CO)N1C(=O)C1CC1: 0.745
COc1ccc(OCc2ccc(-c3nc4ccccc4c(=O)n3N)o2)cc1: 54.8
O=C(CN1CCN(c2ccc(Cl)cc2)CC1)c1ccccc1: -0.082
CC(C)c1c(C(=O)N/N=C/c2ccc(-c3ccccc3)cc2)nnn1-c1nonc1N: -2.09
COc1ccccc1Nc1ncnc2c1oc1ccccc12: 75.2
CC(C)C(C)NC(=O)COc1ncnc2ccccc12 (centres undefined): -6.72

Query :: Suppose we examine the compound O=C(C1CCC1)N1C[C@H]2[C@@H](c3ccccc31)[C@H](CO)N2C(=O)Nc1cccc(F)c1 ; what reporter increase value has been reported?
Result :: -1.72

Query :: Suppose we examine the compound Cc1nc2ccc(C(=O)N/N=C/c3ccc(O)cc3)cc2[nH]1 ; what reporter increase value has been reported?
Result :: -6.33

Query :: Suppose we examine the compound CC(OC(=O)c1c(F)cccc1F)C(=O)NCCC1=CCCCC1 (centres undefined) ; what reporter increase value has been reported?
Result :: -1.99

Query :: Suppose we examine the compound CO[C@H]1CN(C)C(=O)c2cc(NS(C)(=O)=O)ccc2OC[C@@H](C)N(C(=O)NC(C)C)C[C@@H]1C ; what reporter increase value has been reported?
Result :: -1.56

Query :: Suppose we examine the compound CCC(=O)Nc1ccc2c(c1)OC[C@@H](C)N(Cc1ccccc1OC)C[C@H](C)[C@H](OC)CN(C)C2=O ; what reporter increase value has been reported?
Result :: -1.32

Query :: Suppose we examine the compound CCC(=O)N(C)C[C@H]1Oc2ncc(-c3ccccc3OC)cc2C(=O)N([C@H](C)CO)C[C@H]1C ; what reporter increase value has been reported?
Result :: 2.4

Query :: Suppose we examine the compound C[C@H](CO)N1C[C@H](C)[C@@H](CN(C)S(=O)(=O)c2ccc(F)cc2)Oc2ccc(NC(=O)CCCCCC(=O)Nc3ccccc3N)cc2CC1=O ; what reporter increase value has been reported?
Result :: 1.27

Query :: Suppose we examine the compound C[C@H](CO)N1C[C@H](C)[C@@H](CN(C)Cc2ccncc2)OCCCC[C@H](C)Oc2ccc(NS(=O)(=O)c3ccc(Cl)cc3)cc2C1=O ; what reporter increase value has been reported?
Result :: 0.433

Query :: Suppose we examine the compound O=C(NC1CCCC1)[C@H]1[C@H](CO)[C@H]2Cn3c(ccc(-c4ccccc4F)c3=O)[C@@H]1N2C(=O)CC1CC1 ; what reporter increase value has been reported?
Result :: -2.95

Query :: Suppose we examine the compound CCC(=O)NC(=Nc1nc2ccccc2s1)NC(=O)CC ; what reporter increase value has been reported?
Result :: 65.4

Query :: Suppose we examine the compound Cn1c(COc2ccc(Cl)cc2)nc2ccccc2c1=O ; what reporter increase value has been reported?
Result :: 12.6

Query :: Suppose we examine the compound Cc1ccc(S(=O)(=O)N[C@@H]2CC[C@H](CCn3cc(C4(O)CCCC4)nn3)O[C@H]2CO)cc1 ; what reporter increase value has been reported?
Result :: 1.86

Query :: Suppose we examine the compound COc1ccc(Nc2ncnc3ccc(Br)cc23)c(OC)c1 ; what reporter increase value has been reported?
Result :: -66.9
